Each recorded value in this set is attributed to patent US20230227426A1.

# assayTarget: full-length human PHD2 (Homo sapiens)
# Construct: The PHD2 construct contained amino acids 1 to 426 of PHD2; His tag (N, cleaved yes); TEV protease cleavage site (N, cleaved yes)
# protocolSummary: TR-FRET assay for PHD enzymes, PHD2
# conditionsUsed: read-out: PHD2 IC5 0
endpoint: IC50

// query Given the entry "Cc1nn(-c2ccc(C(=O)O)cn2)c(O)c1-c1ccc(C#N)c(Cl)c1" , what IC50 was observed with full-length human PHD2 (Homo sapiens)?
// result < 100 nM

// query Given the entry "Cc1cc(C#N)ccc1-c1c(C)nn(-c2ccc(C(=O)O)cn2)c1O" , what IC50 was observed with full-length human PHD2 (Homo sapiens)?
// result < 100 nM

// query Given the entry "Cc1nc(-n2nc(C)c(-c3ccc(C#N)cc3)c2O)ccc1C(=O)O" , what IC50 was observed with full-length human PHD2 (Homo sapiens)?
// result 1000 to 10000 nM

// query Given the entry "Cc1nn(-c2cnc(C(=O)O)cn2)c(O)c1-c1ccc(C#N)cc1" , what IC50 was observed with full-length human PHD2 (Homo sapiens)?
// result < 100 nM

// query Given the entry "Cc1nn(-c2ccc(C(=O)O)cn2)c(O)c1-c1ccc(Cl)cn1" , what IC50 was observed with full-length human PHD2 (Homo sapiens)?
// result 100 to 1000 nM

// query Given the entry "CCOC(=O)c1ccc(-n2ncc(-c3ccc(C#N)cc3)c2O)nc1" , what IC50 was observed with full-length human PHD2 (Homo sapiens)?
// result < 100 nM

// query Given the entry "CC(C)(C)OC(=O)c1ccc(-n2ncc(-c3ccc(C#N)cc3)c2O)nc1" , what IC50 was observed with full-length human PHD2 (Homo sapiens)?
// result < 100 nM

---

Quick note: these are pIC50 numbers for system: full-length human PHD3 (Homo sapiens)
Sequence (Q9H6Z9 whole entry): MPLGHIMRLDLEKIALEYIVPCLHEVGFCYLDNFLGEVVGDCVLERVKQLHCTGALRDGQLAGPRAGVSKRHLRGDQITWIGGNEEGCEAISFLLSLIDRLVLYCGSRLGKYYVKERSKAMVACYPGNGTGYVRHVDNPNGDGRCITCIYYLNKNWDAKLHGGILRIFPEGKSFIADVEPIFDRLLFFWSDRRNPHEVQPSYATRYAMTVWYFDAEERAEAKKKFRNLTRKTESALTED
pIC50: −log10 of the molar value.

// query What value of pIC50 has been recorded for this entry: "CCOC(=O)c1ccc(-n2ncc(-c3ccc(C#N)cc3)c2O)nc1"
// result > 7.00

// query What value of pIC50 has been recorded for this entry: "O=C(O)c1ccc(-n2ncc(-c3ccc(Br)cc3)c2O)nc1"
// result 6.00 to 7.00

// query What value of pIC50 has been recorded for this entry: "COc1cc(-c2cnn(-c3ccc(C(=O)OC(C)(C)C)cn3)c2O)ccn1"
// result > 7.00

// query What value of pIC50 has been recorded for this entry: "Cc1nn(-c2ccc(C(=O)O)cn2)c(O)c1-c1ccc(C#N)cc1"
// result > 7.00

// query What value of pIC50 has been recorded for this entry: "N#Cc1ccc(-c2cnn(-c3ccc(C(=O)O)cn3)c2O)cc1F"
// result > 7.00

---

# assayTarget: full-length human PHD2 (Homo sapiens, UniProt Q9GZT9)
# Construct: The PHD2 construct contained amino acids 1 to 426 of PHD2; His tag (N, cleaved yes); TEV protease cleavage site (N, cleaved yes); host or cells: Sf9 insect cells (baculovirus)
# Sequence (Q9GZT9 whole entry, the tested form may be a part): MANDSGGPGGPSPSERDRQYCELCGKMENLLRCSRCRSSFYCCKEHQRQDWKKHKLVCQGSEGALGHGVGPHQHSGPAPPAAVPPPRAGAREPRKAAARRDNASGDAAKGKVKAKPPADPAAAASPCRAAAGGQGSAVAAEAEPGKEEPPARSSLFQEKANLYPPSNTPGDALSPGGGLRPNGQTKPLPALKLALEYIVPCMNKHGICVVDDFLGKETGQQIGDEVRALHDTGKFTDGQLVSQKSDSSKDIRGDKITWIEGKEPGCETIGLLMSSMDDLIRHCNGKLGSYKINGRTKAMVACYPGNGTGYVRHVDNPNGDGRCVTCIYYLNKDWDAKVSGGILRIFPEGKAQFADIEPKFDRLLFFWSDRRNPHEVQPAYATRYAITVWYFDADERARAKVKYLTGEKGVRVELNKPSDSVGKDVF
# protocolSummary: TR-FRET assay for PHD enzymes, PHD2
# Assay type: biochemical
# conditionsUsed: read-out: PHD2 IC5 0
pIC50: −log10 of the molar value.
Kindly state pIC50 for each of the entries shown.

// query What value of pIC50 has been recorded for this entry: "CC(C)(C)OC(=O)c1ccc(-n2ncc(-c3ccc(Cl)cc3)c2O)nc1"
// result 5.00 to 6.00

// query What value of pIC50 has been recorded for this entry: "N#Cc1ccc(-c2cnn(-c3ccc(C(=O)O)cn3)c2O)c(Cl)c1"
// result > 7.00

// query What value of pIC50 has been recorded for this entry: "Cc1nn(-c2ccc(C(=O)O)cn2)c(O)c1-c1ccc(Cl)c(C#N)c1"
// result > 7.00

// query What value of pIC50 has been recorded for this entry: "Cc1nn(-c2ccc(C(=O)O)cn2)c(O)c1-c1ccc(C#N)cc1"
// result > 7.00

// query What value of pIC50 has been recorded for this entry: "CC(C)OC(=O)c1ccc(-n2ncc(-c3ccc(C#N)cc3)c2O)nc1"
// result > 7.00

// query What value of pIC50 has been recorded for this entry: "N#Cc1ccc(-c2cnn(-c3ncc(C(=O)O)cc3F)c2O)cc1"
// result 5.00 to 6.00

// query What value of pIC50 has been recorded for this entry: "O=C(O)c1ccc(-n2ncc(-c3ccc(Cl)cc3)c2O)nc1"
// result > 7.00

// query What value of pIC50 has been recorded for this entry: "COc1ccc(-c2c(C)nn(-c3ccc(C(=O)O)cn3)c2O)cc1C"
// result 6.00 to 7.00

// query What value of pIC50 has been recorded for this entry: "Cc1nn(-c2ccc(C(=O)O)cn2)c(O)c1-c1ccc(C#N)c(F)c1"
// result > 7.00

---

# assayTarget: full-length human PHD2 (Homo sapiens)
# Construct: The PHD2 construct contained amino acids 1 to 426 of PHD2; His tag (N, cleaved yes); TEV protease cleavage site (N, cleaved yes)
# protocolSummary: TR-FRET assay for PHD enzymes, PHD2
# conditionsUsed: read-out: PHD2 IC5 0
pIC50: −log10 of the molar value.
endpoint: pIC50

// query Given the entry O=C(O)c1ccc(-n2ncc(-c3ccc(Cl)c(O)c3)c2O)nc1 [Compound 22] , what pIC50 was observed with full-length human PHD2 (Homo sapiens)?
// result > 7.00

// query Given the entry O=C(O)c1ccc(-n2ncc(-c3ccc(Br)cc3)c2O)nc1 [Compound 3] , what pIC50 was observed with full-length human PHD2 (Homo sapiens)?
// result > 7.00

// query Given the entry COC(=O)c1ccc(-n2nc(C)c(-c3ccc(C#N)cc3)c2O)nc1 [Compound 11] , what pIC50 was observed with full-length human PHD2 (Homo sapiens)?
// result > 7.00

// query Given the entry COc1ccc(-c2cnn(-c3ccc(C(=O)O)cn3)c2O)cn1 [Compound 43] , what pIC50 was observed with full-length human PHD2 (Homo sapiens)?
// result > 7.00

// query Given the entry O=C(O)c1ccc(-n2ncc(-c3ccc(Cl)nc3)c2O)nc1 [Compound 17] , what pIC50 was observed with full-length human PHD2 (Homo sapiens)?
// result > 7.00

// query Given the entry N#Cc1ccc(-c2cnn(-c3ccc(C(=O)O)cn3)c2O)c(C(F)(F)F)c1 [Compound 40] , what pIC50 was observed with full-length human PHD2 (Homo sapiens)?
// result > 7.00

// query Given the entry CC(C)(C)OC(=O)c1ccc(-n2ncc(-c3ccc(Br)cc3)c2O)nc1 [Compound 2] , what pIC50 was observed with full-length human PHD2 (Homo sapiens)?
// result ≤ 5.00

// query Given the entry COc1cc(-c2cnn(-c3ccc(C(=O)OC(C)(C)C)cn3)c2O)ccn1 [Compound 35] , what pIC50 was observed with full-length human PHD2 (Homo sapiens)?
// result > 7.00

// query Given the entry Cc1cc(-c2cnn(-c3ccc(C(=O)O)cn3)c2O)ccc1O [Compound 16] , what pIC50 was observed with full-length human PHD2 (Homo sapiens)?
// result 6.00 to 7.00

---

Quick note: these are IC50 numbers for system: full-length human PHD1 (Homo sapiens, UniProt Q96KS0)
Sequence (Q96KS0 whole entry): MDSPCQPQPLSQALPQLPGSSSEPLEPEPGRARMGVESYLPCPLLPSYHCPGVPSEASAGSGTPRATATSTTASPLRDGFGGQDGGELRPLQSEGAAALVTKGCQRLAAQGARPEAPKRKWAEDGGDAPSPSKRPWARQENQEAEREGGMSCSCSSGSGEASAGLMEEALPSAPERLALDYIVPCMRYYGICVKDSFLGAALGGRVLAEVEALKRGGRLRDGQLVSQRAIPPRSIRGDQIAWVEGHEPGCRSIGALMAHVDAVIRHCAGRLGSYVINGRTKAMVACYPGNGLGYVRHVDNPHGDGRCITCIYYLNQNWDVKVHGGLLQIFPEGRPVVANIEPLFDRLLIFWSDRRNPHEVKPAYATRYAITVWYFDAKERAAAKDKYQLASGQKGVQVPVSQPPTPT

// query What value of IC50 has been recorded for this entry: N#Cc1ccc(-c2cnn(-c3ccc(C(=O)O)cn3)c2O)c(C(F)(F)F)c1 [Compound 40]
// result < 100 nM

// query What value of IC50 has been recorded for this entry: Cc1cc(C#N)ccc1-c1cnn(-c2ccc(C(=O)OC(C)(C)C)cn2)c1O [Compound 8]
// result < 100 nM

// query What value of IC50 has been recorded for this entry: Cc1cc(-c2cnn(-c3ccc(C(=O)O)cn3)c2O)ccc1O [Compound 16]
// result 100 to 1000 nM

// query What value of IC50 has been recorded for this entry: O=C(O)c1ccc(-n2ncc(-c3ccc(Br)cc3)c2O)nc1 [Compound 3]
// result < 100 nM

// query What value of IC50 has been recorded for this entry: O=C(O)c1ccc(-n2ncc(-c3ccc(Cl)c(O)c3)c2O)nc1 [Compound 22]
// result < 100 nM

// query What value of IC50 has been recorded for this entry: Cc1cc(C#N)cc(C)c1-c1cnn(-c2ccc(C(=O)O)cn2)c1O [Compound 31]
// result < 100 nM

// query What value of IC50 has been recorded for this entry: N#Cc1cc(F)c(-c2cnn(-c3ccc(C(=O)O)cn3)c2O)cc1F [Compound 12]
// result < 100 nM

// query What value of IC50 has been recorded for this entry: CC(C)(C)OC(=O)c1ccc(-n2ncc(-c3ccc(Br)cc3)c2O)nc1 [Compound 2]
// result 100 to 1000 nM

// query What value of IC50 has been recorded for this entry: O=C(O)c1ccc(-n2ncc(-c3ccc(Cl)cc3O)c2O)nc1 [Compound 39]
// result 100 to 1000 nM

// query What value of IC50 has been recorded for this entry: Cc1nn(-c2ccc(C(=O)O)cn2)c(O)c1-c1ccc(C#N)cc1 [Compound 9]
// result < 100 nM

// query What value of IC50 has been recorded for this entry: CCOC(=O)c1ccc(-n2ncc(-c3ccc(C#N)cc3)c2O)nc1 [Compound 36]
// result < 100 nM

// query What value of IC50 has been recorded for this entry: O=C(O)c1ccc(-n2ncc(-c3ccc(F)cc3)c2O)nc1 [Compound 7]
// result < 100 nM

// query What value of IC50 has been recorded for this entry: Cc1nn(-c2ccc(C(=O)O)cn2)c(O)c1-c1cc[n+]([O-])cc1 [Compound 41]
// result ≥ 10000 nM

// query What value of IC50 has been recorded for this entry: Cc1nn(-c2ccc(C(=O)O)cn2)c(O)c1-c1ccc(Cl)cn1 [Compound 20]
// result < 100 nM

// query What value of IC50 has been recorded for this entry: Cc1nc(-n2nc(C)c(-c3ccc(C#N)cc3)c2O)ccc1C(=O)O [Compound 19]
// result 1000 to 10000 nM

// query What value of IC50 has been recorded for this entry: COc1ccc(-c2cnn(-c3ccc(C(=O)O)cn3)c2O)cn1 [Compound 43]
// result < 100 nM

// query What value of IC50 has been recorded for this entry: Cc1cc(-n2nc(C)c(-c3ccc(C#N)cc3)c2O)ncc1C(=O)O [Compound 18]
// result < 100 nM

// query What value of IC50 has been recorded for this entry: Cc1nn(-c2ccc(C(=O)OC(C)(C)C)cn2)c(O)c1-c1ccc(C#N)cc1 [Compound 10]
// result < 100 nM

// query What value of IC50 has been recorded for this entry: O=C(O)c1ccc(-n2ncc(-c3ccc(Cl)cc3)c2O)nc1 [Compound 5]
// result < 100 nM
